All figures here come from BindingDB's records for PubMed 32883635.

Target: Enoyl-[acyl-carrier-protein] reductase [NADPH] FabI (Staphylococcus aureus (strain MRSA252), UniProt Q6GI75)
Sequence (Q6GI75 whole entry): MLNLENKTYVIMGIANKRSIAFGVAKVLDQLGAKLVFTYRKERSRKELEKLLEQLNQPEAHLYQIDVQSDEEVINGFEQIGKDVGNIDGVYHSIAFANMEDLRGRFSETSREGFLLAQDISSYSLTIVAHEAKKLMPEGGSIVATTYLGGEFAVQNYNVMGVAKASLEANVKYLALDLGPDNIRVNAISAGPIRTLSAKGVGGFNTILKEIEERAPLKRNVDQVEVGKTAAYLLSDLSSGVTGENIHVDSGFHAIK
Experiment: Inhibition of Staphylococcus aureus FabI assessed as inhibition of bacterial growth by measuring the NADH consumption rate at 20 mins
Kindly supply the reported IC50 values for the records listed here.
Give a bare numeral; the unit nM is implied.

// IC50 lookup, compound = NS(=O)(=O)c1ccc(/N=C/C2=C(Cl)CCC=C2)cc1 , result: 0.35

IC50 in this record for NS(=O)(=O)C1C=CC(NC(=O)CCCN2CCOCC2)C=C1 (stereo not drawn) : 0.31

// IC50 lookup, compound = COc1cc(/C=N/c2ccc(S(N)(=O)=O)cc2)ccc1C(C)=O , result: 0.33

----------
Assay: Inhibition of wild type Escherichia coli FabI assessed as inhibition of bacterial growth
recorded_metric: Ki (nM)
Give the number; nM is assumed, so skip it.

Noted for Oc1cc(F)ccc1Oc1ccccc1 [PT55] : its Ki reads 0.7

Recorded Ki (compound Oc1ccccc1Oc1ccccc1 [2-phenoxylphenol] ): 0.5

The compound identified as Cc1ccc(Oc2ccccc2)c(O)c1 [PT53] registered its Ki at 7
